- testSummary: Anticancer activity against mouse Thymocyte
- Assay type: toxicity, cell-based
- testSettings: thymocytes
propertyLabel: IC50 (µM)
Enter your answer as a number in µM; do not include the unit.

Problem: # query: IC50 of entry "C=C(C)[C@@H]1CCC(C)=C[C@H]1c1c(O)cc(CCCCC)cc1O"
Solution: 7.01

---

- testSummary: Solubility of compound in water by UV absorbance based analysis
- Assay type: physicochemical
propertyLabel: solubility (µg/mL)
Enter your answer as a number in µg/mL; do not include the unit.

Please review the following examples before continuing.
> print(dat)
                                 smilesdata  recordedmeasurement
1  C=C(C)[C@@H]1CCC(C)=C[C@H]1c1c(O)cc(CCCCC)c2c1OCN(C1CCC1)C2                   40
2     O=C(/C=C/C=C/c1ccc2c(c1)OCO2)N1CCCCC1                   40

Shifting focus to the compound that follows.
Problem: # query: solubility of entry "C=C(C)[C@@H]1CCC(C)=C[C@H]1c1c(O)cc(CCCCC)c2c1OCN(CCCC)C2"
Solution: 80
